Target: Aurora kinase A (Homo sapiens) (UniProt O14965)
Sequence (O14965 whole entry): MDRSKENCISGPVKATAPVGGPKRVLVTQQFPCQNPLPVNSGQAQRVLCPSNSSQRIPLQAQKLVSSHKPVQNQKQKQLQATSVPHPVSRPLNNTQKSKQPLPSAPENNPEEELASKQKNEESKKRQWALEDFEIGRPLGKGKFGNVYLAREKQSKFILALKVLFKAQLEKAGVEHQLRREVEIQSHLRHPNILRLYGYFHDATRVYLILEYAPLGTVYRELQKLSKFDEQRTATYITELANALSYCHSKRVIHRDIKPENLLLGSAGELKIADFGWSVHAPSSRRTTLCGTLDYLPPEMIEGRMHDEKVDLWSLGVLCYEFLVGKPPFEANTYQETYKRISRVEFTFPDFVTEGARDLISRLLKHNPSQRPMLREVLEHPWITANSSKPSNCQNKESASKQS
Details: Compound concentration 20.0 uM, Protein concentration 2.0 uM, Result type QC Liability
Description: Thermal Shift Assay. Domain: start/stop: E122-S403
ΔTm listing for selected compounds.
Respond numerically; units are °C and should not be typed.

Below are worked cases with known answers.
CN(C)CCCN1c2ccccc2Sc2ccc(Cl)cc21 -0.47
c1ccc2c(-c3coc4cc(-c5ccc(N6CCNCC6)cc5)cnc34)ccnc2c1 -0.46
O=C(CCCN1CCC(O)(c2ccc(Cl)cc2)CC1)c1ccc(F)cc1 -0.3
Cc1cc(CN)cc(C)c1-c1ncn(C)c1-c1ccnc2cc(F)ccc12 0.25

Which ΔTm is reported for this compound? CN(C)c1ccc(-c2cc3ncccc3c(OCCCCO)n2)cc1 8.85

Also check Cc1ncsc1-c1ccc(CNC(=O)[C@@H]2C[C@@H](O)CN2C(=O)[C@@H](NC(=O)C2(F)CC2)C(C)(C)C)c(OCCOc2ccc(CN3CCN(c4cc(-c5ccccc5O)nnc4N)CC3)cc2)c1 3.64

Okay, and Cc1cc(=O)n(C)c2cc(N3C(=O)CC[C@H](NS(=O)(=O)CC(C)C)[C@H]3c3ccc(Cl)cc3)ccc12 ? 0.15

Repeat for the following compound: Cc1cn([C@@H](C)CC#N)c(=O)c2cc(Cn3nc(C(F)F)cc3Cl)nn12 -0.51

Field entry: Nc1ncnc2c1c(I)cn2[C@@H]1O[C@H](CO)[C@@H](O)[C@H]1O 2.13

###

The entries below are paired with their reported ΔTm.
Target: Tyrosine-protein kinase ABL1 (Homo sapiens) (UniProt P00519)
Sequence (P00519 whole entry): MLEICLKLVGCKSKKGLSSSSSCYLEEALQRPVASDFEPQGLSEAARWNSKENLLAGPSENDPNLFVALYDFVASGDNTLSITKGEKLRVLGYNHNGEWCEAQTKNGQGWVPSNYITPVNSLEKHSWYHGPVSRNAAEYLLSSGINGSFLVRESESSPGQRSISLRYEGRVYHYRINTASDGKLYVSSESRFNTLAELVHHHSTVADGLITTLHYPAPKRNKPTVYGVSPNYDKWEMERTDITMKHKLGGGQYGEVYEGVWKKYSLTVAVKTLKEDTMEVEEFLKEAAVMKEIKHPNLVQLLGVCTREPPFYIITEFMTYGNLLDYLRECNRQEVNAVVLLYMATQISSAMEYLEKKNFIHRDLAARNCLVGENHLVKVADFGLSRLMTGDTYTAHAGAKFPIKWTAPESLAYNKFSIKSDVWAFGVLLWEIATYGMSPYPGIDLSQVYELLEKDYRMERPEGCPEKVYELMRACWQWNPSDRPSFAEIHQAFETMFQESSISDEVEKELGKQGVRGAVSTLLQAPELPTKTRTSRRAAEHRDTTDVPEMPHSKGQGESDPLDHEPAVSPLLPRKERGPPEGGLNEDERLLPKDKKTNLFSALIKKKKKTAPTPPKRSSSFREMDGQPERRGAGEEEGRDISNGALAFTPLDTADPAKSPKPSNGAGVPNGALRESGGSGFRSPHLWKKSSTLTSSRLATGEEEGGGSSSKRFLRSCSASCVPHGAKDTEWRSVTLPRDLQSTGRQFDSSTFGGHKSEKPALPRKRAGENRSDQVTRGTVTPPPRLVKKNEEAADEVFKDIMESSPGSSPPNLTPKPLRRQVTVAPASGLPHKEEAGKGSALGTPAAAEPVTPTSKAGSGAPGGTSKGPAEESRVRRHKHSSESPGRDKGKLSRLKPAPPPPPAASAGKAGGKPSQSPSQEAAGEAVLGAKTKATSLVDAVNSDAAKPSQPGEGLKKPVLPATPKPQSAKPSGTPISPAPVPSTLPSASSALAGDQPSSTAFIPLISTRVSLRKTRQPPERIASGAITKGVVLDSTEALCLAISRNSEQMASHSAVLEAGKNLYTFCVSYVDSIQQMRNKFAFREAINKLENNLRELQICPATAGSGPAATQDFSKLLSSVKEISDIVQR
Conditions: Compound concentration 20.0 uM, Protein concentration 2.0 uM, Result type QC Liability
Description: Thermal Shift Assay. Domain: start/stop: S229-K512
Write it as a number; the unit °C goes unstated.

The examples below pair each entry with its known result.
MOLECULE	UNIT SYMBOL	TEST VALUE
CN(C)[C@H]1C[C@H](n2cnc(-c3ccc(F)cn3)c2-c2ccnc3[nH]ccc23)C1	°C	0.17
COc1ccc(CC[C@@H](OC(=O)[C@@H]2CCCCN2C(=O)[C@H](c2cc(OC)c(OC)c(OC)c2)C2CCCCC2)c2cccc(OCCN3CCOCC3)c2)cc1OC	°C	-1.71
O=C(O)CCCCN(CCc1cc(F)ccc1OCc1ccc(-c2ccc(C(F)(F)F)cc2)cc1)Cc1ccc(C(=O)O)cc1	°C	0.64
CO[C@H]1C[C@@H]2CC[C@@H](C)[C@@](O)(O2)C(=O)C(=O)N2CCCC[C@H]2C(=O)O[C@H]([C@H](C)C[C@@H]2CC[C@@H](O)[C@H](OC)C2)CC(=O)[C@H](C)/C=C(\C)[C@@H](O)[C@@H](OC)C(=O)[C@H](C)C[C@H](C)/C=C/C=C/C=C/1C	°C	0.32
COC(=O)c1sccc1S(=O)(=O)Nc1ccc(Nc2ccccc2)cc1OC	°C	0.48

Fill in: ΔTm of CC(C)S(=O)(=O)c1ccccc1Nc1nc(N[C@@H]2CCCN(CCCCCCCNC(=O)COc3cccc4c3C(=O)N(C3CCC(=O)NC3=O)C4=O)C2)ncc1Cl (some centres undefined) is ___ 8.06

Further, for Cc1cc(SCc2sc(-c3ccc(C(F)(F)F)cc3)nc2C)ccc1OCC(=O)O ? 0

Try CCN(CC)C/C=C/C(=O)Nc1cc2c(Nc3ccc(F)c(Cl)c3)ncnc2cc1OCC1CC1 next. 7.73

###

Biological target: Aurora kinase A (Homo sapiens) (UniProt O14965)
Details: Compound concentration 20.0 uM, Protein concentration 2.0 uM, Result type QC Liability
Respond with MET for ΔTm values of -0.3 °C and above, NOT MET for values below.

COMPOUND	ASSIGNED LABEL
CCOC(=O)N1CCC(CN(Cc2ccc(Cl)cc2)Cc2ccc([N+](=O)[O-])s2)C1 (stereo not given)	NOT MET
CC(C)(O)c1coc(S(=O)(=O)NC(=O)Nc2c3c(cc4c2CCC4)CCC3)c1	MET
COc1cc(F)ccc1-c1ncnc(Nc2cccc(C[S@](C)(=N)=O)c2)n1	MET

Evaluate COc1ccc(COc2ccc(Cc3cnc(N)nc3N)cc2OC)cc1 : ΔTm at minimum -0.3 °C? MET

Same again, this time with COc1cc(C)c(S(=O)(=O)N(C)CCOCC(=O)N(C)[C@H]2CCC[C@@H](N3CCN(C)CC3)C2)c(C)c1 MET

###

Here, each record is paired with measured ΔTm data.
Target: Tyrosine-protein kinase ABL1 (Homo sapiens)
Details: Compound concentration 20.0 uM, Protein concentration 2.0 uM, Result type QC Liability
Provide only the numeric value, understood in °C.

Illustrative cases are given below, each with its answer.
COMPOUND	ΔTm, °C
CCS(=O)(=O)c1ccc(OC)c(Nc2ncc(-c3cccc(F)c3)o2)c1	2.1
CC(C)(O)c1coc(S(=O)(=O)NC(=O)Nc2c3c(cc4c2CCC4)CCC3)c1	0.65

For the next question, use this compound.
Query ΔTm on Tyrosine-protein kinase ABL1 (Homo sapiens) for CCc1ccc(-c2ncn(CC3(F)CCN(C)CC3)c2-c2ccnc3[nH]ccc23)nc1 0.05

###

Target: Casein kinase I isoform delta (Homo sapiens)
Conditions: Compound concentration 20.0 uM, Protein concentration 2.0 uM, Result type QC Liability
Description: Thermal Shift Assay. Domain: start/stop: M1-K294
I'd appreciate it if you marked entries Y when ΔTm is lower than 0.3 °C and N when it is not.

As a guide, the following entries are already answered.
COMPOUND	TARGET	ASSIGNED LABEL
CC(C)(O)[C@H](F)CN1Cc2cc(NC(=O)c3cnn4cccnc34)c(N3CCOCC3)cc2C1=O	Casein kinase I isoform delta (Homo sapiens)	N
C[C@@H]1CN(CC(=O)N2CC(C)(C)c3nc(CO)c(Cc4ccc(F)cc4)cc32)[C@@H](CN2CCOC[C@H]2C)CN1	Casein kinase I isoform delta (Homo sapiens)	Y
CCOC(=O)CS(=O)(=O)c1ccc([C@@H](CO)NC(=O)c2cc3c(Cl)c(Cl)c(C)cc3n2C)cc1	Casein kinase I isoform delta (Homo sapiens)	N
COc1cc(C)c(S(=O)(=O)N(C)CCC(=O)N[C@H]2CC[C@@H](N3CCC4CN(C)CC4C3)CC2)c(C)c1 (stereo partly drawn)	Casein kinase I isoform delta (Homo sapiens)	N
COc1cc(O)c(C(CC(=O)N2C[C@H](C)C[C@H](C)C2)c2ccc3c(c2)OCO3)c(OC)c1 (stereo partly drawn)	Casein kinase I isoform delta (Homo sapiens)	Y
CC1CN(CC(=O)N2CC(C)(C)c3nc(CO)c(Cc4ccc(F)cc4)cc32)C(CN2CCOCC2C)CN1 (stereo not drawn)	Casein kinase I isoform delta (Homo sapiens)	N
O=C(O)CCCc1cc2cc(Cl)ccc2n1S(=O)(=O)c1ccc2ncsc2c1	Casein kinase I isoform delta (Homo sapiens)	N
CC[C@H](CO)Nc1nc(Nc2cccc(-c3ccccn3)c2)c2ncn(C(C)C)c2n1	Casein kinase I isoform delta (Homo sapiens)	N

Identify whether the compound O=c1[nH]c(CS[C@H]2CC[C@H](O)CC2)nc2cc(OCC3CC3)cc(F)c12 records ΔTm below 0.3 °C. N

Now consider CN(C)C(=O)c1cc2cnc(Nc3ccc(N4CCN(CCCCNC(=O)COc5cccc6c5C(=O)N(C5CCC(=O)NC5=O)C6=O)CC4)cn3)nc2n1C1CCCC1 (stereo not drawn) and answer again. Y

Moving on to COC(=O)Nc1nc2c(s1)-c1c(c(-c3cccnc3)nn1-c1ccc(C3(N(C)C)CC3)cc1)CC2 Y

Do the same for CCCCCCCC/C=C\CCCCCCCC(=O)NCCO please Y

Query Cc1cc2c(cc(C(=O)N[C@H](CO)c3ccc(S(=O)(=O)CC(=O)O)cc3)n2C)c(Cl)c1Cl next Y

What about COc1cc(-c2cn[nH]c2)ccc1C(=O)Nc1ccc2c(c1)CCNCC2 ? N

What about this compound? NC1(c2ccc(-c3nc4c(O)ccnn4c3-c3ccccc3)cc2)CCC1 Y

Now try O=C(Cc1ccccc1)Nc1nnc(N2CC[C@@H]3[C@H]2CN3c2cccnn2)s1 . Y

###

Biological target: Glycogen synthase kinase-3 beta (Homo sapiens) (UniProt P49841)
Sequence (P49841 whole entry, looked up): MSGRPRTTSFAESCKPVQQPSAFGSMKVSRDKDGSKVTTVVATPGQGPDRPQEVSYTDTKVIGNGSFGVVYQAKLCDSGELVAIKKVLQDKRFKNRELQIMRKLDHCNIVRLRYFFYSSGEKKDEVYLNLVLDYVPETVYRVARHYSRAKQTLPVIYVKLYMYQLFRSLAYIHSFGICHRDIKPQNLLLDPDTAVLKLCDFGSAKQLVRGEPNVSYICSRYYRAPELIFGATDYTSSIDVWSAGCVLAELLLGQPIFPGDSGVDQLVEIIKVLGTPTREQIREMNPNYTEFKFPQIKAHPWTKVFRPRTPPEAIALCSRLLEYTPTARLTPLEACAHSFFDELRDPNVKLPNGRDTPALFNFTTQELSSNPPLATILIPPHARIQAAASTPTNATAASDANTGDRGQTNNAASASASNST
Settings: Compound concentration 20.0 uM, Protein concentration 2.0 uM, Result type QC Liability
Description: Thermal Shift Assay. Domain: start/stop: M26-R383
MEASURED ATTRIBUTE: ΔTm (°C)
The reply should contain only the number, in °C.

MOLECULE	ΔTm (°C)
CCNC1=N[C@@H]2[C@@H](O)[C@H](O)[C@@H](CO)O[C@@H]2S1	-0.6
CCC(=O)N[C@@H]1CC[C@H](C(=O)N(C)c2ccc(-c3nc4ccccc4o3)cc2)C1	-0.1
COc1cc(C(=O)NC2CCN(C)CC2)ccc1Nc1ncc2c(n1)N(C1CCCC1)CC(F)(F)C(=O)N2C	-0.4
CCCNc1ccc2ncc(-c3ccncc3)n2n1	4.07
Cc1cc2c(ncn2C2(C)CN(C(=O)c3ccn(CC4CCN([C@H]5C=CCCCC5)CC4)c3)C2)c(N)n1	-0.26

What value of measured ΔTm is listed for Cc1ccc(NS(=O)(=O)c2ccc3c(c2)C2C=CCC2C(c2ccc(C(=O)O)cc2)N3)cc1C (centres undefined) ? -1.27

Continue with CC(C(=O)Nc1cc(C#N)ccc1CCCC(=O)O)c1ccc(F)c2ccccc12 (centres undefined) 0.53

What do you get for CCCCC[C@H](O)/C=C/[C@H]1[C@H](O)CC(=O)[C@@H]1CCCCCCC(=O)O ? -0.48

Please answer likewise for CC(C)(O)c1coc(S(=O)(=O)NC(=O)Nc2c3c(cc4c2CCC4)CCC3)c1 0.29
